# study_system: human Importin α5, residues 66–512 (hImpα5ΔIBB) (human, UniProt P52294 66-512)
# Sequence (P52294 66-512, stated change not applied): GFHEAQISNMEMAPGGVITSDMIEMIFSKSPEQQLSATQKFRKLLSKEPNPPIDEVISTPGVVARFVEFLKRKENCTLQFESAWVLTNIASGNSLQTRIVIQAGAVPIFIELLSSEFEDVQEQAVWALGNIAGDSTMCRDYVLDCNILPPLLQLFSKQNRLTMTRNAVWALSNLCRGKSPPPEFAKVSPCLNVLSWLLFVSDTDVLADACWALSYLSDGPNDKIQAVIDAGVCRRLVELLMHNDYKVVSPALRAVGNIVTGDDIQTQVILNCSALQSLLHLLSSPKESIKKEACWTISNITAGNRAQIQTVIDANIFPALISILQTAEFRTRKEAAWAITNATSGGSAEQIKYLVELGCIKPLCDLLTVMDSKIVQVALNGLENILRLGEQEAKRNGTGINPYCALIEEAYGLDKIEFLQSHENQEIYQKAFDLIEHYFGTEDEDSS
# test_protocol: fluorescence polarisation; fluorescein-labelled pol β NLS peptide against the concentration of the Impα construct; apparent dissociation constants; as in ref. 56
# conditions_used: both partners purified
Ends that are not written are not given here. * marks the point of attachment. FITC = O=C1OC2(c3ccc(O)cc3Oc3cc(O)ccc32)c2ccc(NC(=S)*)cc21
reported_property: pKd
Please report pKd as the negative decimal logarithm of the molar concentration, giving only the number.

Entry SKRKAPQETLNGGK(FITC) [fluorescein-labeled pol β NLS peptide SKRKAPQETLNGG-Lys(FITC)] has what pKd? 6.14

Hello, the source for this data is paper PMC5389473, in case you need it.
